Give measured relative viability for each item. Keep answers brief.
Test system: NCI-H1734
Method: relative viability (nuclei count vs DMSO), 5 days (fraction); higher = more cells survive
Run Conditions: first compound 0.03162 µM
Give bare numbers.

| Compound | relative viability |
| --- | --- |
| O=c1cc(N2CCOCC2)oc2c(-c3cccc4c3sc3ccccc34)cccc12 + NC(=O)Nc1cc(-c2cccc(F)c2)sc1C(=O)N[C@H]1CCCNC1 [AZD7762] (partner 0.2 µM) | 0.568 |
| CCN(CC)CCCCNc1ncc2cc(-c3cc(OC)cc(OC)c3)c(NC(=O)NC(C)(C)C)nc2n1 + Cc1nc(NC(=O)N2CCC[C@H]2C(N)=O)sc1-c1ccnc(C(C)(C)C(F)(F)F)c1 [Alpelisib] (partner 2 µM) | 0.69 |
| O=c1cc(N2CCOCC2)oc2c(-c3cccc4c3sc3ccccc34)cccc12 + N=C(N)NC(=N)NCCc1ccccc1 [Phenformin] (partner 250 µM) | 0.379 |

Okay, here is my list. What is relative viability for each of these?
1. CCN(CC)CCCCNc1ncc2cc(-c3cc(OC)cc(OC)c3)c(NC(=O)NC(C)(C)C)nc2n1 + CCNC(=O)c1noc(-c2cc(C(C)C)c(O)cc2O)c1-c1ccc(CN2CCOCC2)cc1 [Luminespib] (partner 0.01 µM)
2. O=c1cc(N2CCOCC2)oc2c(-c3cccc4c3sc3ccccc34)cccc12 + CS(=O)(=O)N1CCN(Cc2cc3nc(-c4cccc5[nH]ncc45)nc(N4CCOCC4)c3s2)CC1 [Pictilisib] (partner 1 µM)
3. CCN(CC)CCCCNc1ncc2cc(-c3cc(OC)cc(OC)c3)c(NC(=O)NC(C)(C)C)nc2n1 + O=C(CCCCCCC(=O)Nc1ccccc1)NO [Vorinostat] (partner 1 µM)

-- reply
1: 0.189; 2: 0.472; 3: 0.874

====

System: NCI-H596
Method: relative viability (nuclei count vs DMSO), 5 days (fraction); higher = more cells survive
Run Conditions: first compound 1 µM
Assay Endpoint: relative viability
One number for each entry.

| Molecule | relative viability |
| --- | --- |
| O=c1cc(N2CCOCC2)oc2c(-c3cccc4c3sc3ccccc34)cccc12 + N=C(N)NC(=N)NCCc1ccccc1 [Phenformin] (partner 250 µM) | 0.76 |
| O=c1cc(N2CCOCC2)oc2c(-c3cccc4c3sc3ccccc34)cccc12 + CS(=O)(=O)CCNCc1ccc(-c2ccc3ncnc(Nc4ccc(OCc5cccc(F)c5)c(Cl)c4)c3c2)o1 [Lapatinib] (partner 2 µM) | 1.16 |
| O=c1cc(N2CCOCC2)oc2c(-c3cccc4c3sc3ccccc34)cccc12 + Cc1cc(Nc2cc(N3CCN(C)CC3)nc(Sc3ccc(NC(=O)C4CC4)cc3)n2)n[nH]1 [Tozasertib] (partner 0.1 µM) | 1.03 |

-- ask NCI-H596 / relative viability / O=c1cc(N2CCOCC2)oc2c(-c3cccc4c3sc3ccccc34)cccc12 + CC1(C)CCC(c2ccc(Cl)cc2)=C(CN2CCN(c3ccc(C(=O)NS(=O)(=O)c4ccc(N[C@H](CCN5CCOCC5)CSc5ccccc5)c(S(=O)(=O)C(F)(F)F)c4)cc3)CC2)C1 [Navitoclax] (partner 0.5 µM) : value?
-- reply 1.17

====

Kindly state relative viability for each of the entries shown.
Tested on: H3255
Method: relative viability (nuclei count vs DMSO), 5 days (fraction); higher = more cells survive
Run Conditions: first compound 0.01 µM
Answers are plain numbers.

Examples with their reported relative viability follow.
| Compound | relative viability |
| --- | --- |
| CCN(CC)CCCCNc1ncc2cc(-c3cc(OC)cc(OC)c3)c(NC(=O)NC(C)(C)C)nc2n1 + CS(=O)(=O)N1CCN(Cc2cc3nc(-c4cccc5[nH]ncc45)nc(N4CCOCC4)c3s2)CC1 [Pictilisib] (partner 1 µM) | 0.421 |
| O=c1cc(N2CCOCC2)oc2c(-c3cccc4c3sc3ccccc34)cccc12 + C[C@]1(O)C[C@@H](c2nc(-c3ccc4ccc(-c5ccccc5)nc4c3)c3c(N)nccn32)C1 [Linsitinib] (partner 1 µM) | 1 |
| O=c1cc(N2CCOCC2)oc2c(-c3cccc4c3sc3ccccc34)cccc12 + COc1cc2c(Oc3ccc(NC(=O)C4(C(=O)Nc5ccc(F)cc5)CC4)cc3F)ccnc2cc1OCCCN1CCOCC1 [Foretinib] (partner 0.25 µM) | 0.82 |

Let us move to another entry and its relative viability.
-- ask Hi! What's the reported relative viability for CCN(CC)CCCCNc1ncc2cc(-c3cc(OC)cc(OC)c3)c(NC(=O)NC(C)(C)C)nc2n1 + CCNC(=O)c1noc(-c2cc(C(C)C)c(O)cc2O)c1-c1ccc(CN2CCOCC2)cc1 [Luminespib] (partner 0.01 µM) on H3255?
-- reply 0.73

====

Test system: EPLC-272H
Method: relative viability (nuclei count vs DMSO), 5 days (fraction); higher = more cells survive
Run Conditions: first compound 0.2 µM
Would you kindly list relative viability for each of these compounds?
One number for each entry.

Some compounds with recorded relative viability:
| Compound | Measured Value |
| --- | --- |
| COCC1(CO)C(=O)C2CCN1CC2 (stereo not drawn) [PRIMA-1MET] + Nc1nc2[nH]cc(CCc3ccc(C(=O)N[C@@H](CCC(=O)O)C(=O)O)cc3)c2c(=O)[nH]1 [Pemetrexed] (partner 0.2 µM) | 0.35 |
| COCC1(CO)C(=O)C2CCN1CC2 (stereo not drawn) [PRIMA-1MET] + O=C(c1cc(Cc2n[nH]c(=O)c3ccccc23)ccc1F)N1CCN(C(=O)C2CC2)CC1 [Olaparib] (partner 8 µM) | 0.655 |
| COCC1(CO)C(=O)C2CCN1CC2 (stereo not drawn) [PRIMA-1MET] + C[C@]1(O)C[C@@H](c2nc(-c3ccc4ccc(-c5ccccc5)nc4c3)c3c(N)nccn32)C1 [Linsitinib] (partner 1 µM) | 1.26 |
| COCC1(CO)C(=O)C2CCN1CC2 (stereo not drawn) [PRIMA-1MET] + Nc1ncn([C@H]2C[C@H](O)[C@@H](CO)O2)c(=O)n1 [Decitabine] (partner 2 µM) | 0.353 |
| COCC1(CO)C(=O)C2CCN1CC2 (stereo not drawn) [PRIMA-1MET] + CC(=O)Nc1cccc(-n2c(=O)n(C3CC3)c(=O)c3c(Nc4ccc(I)cc4F)n(C)c(=O)c(C)c32)c1 [Trametinib] (partner 0.02 µM) | 0.281 |
| COCC1(CO)C(=O)C2CCN1CC2 (stereo not drawn) [PRIMA-1MET] + CC(C)C[C@H](NC(=O)[C@H](Cc1ccccc1)NC(=O)c1cnccn1)B(O)O [Bortezomib] (partner 0.002 µM) | 1.03 |
| COCC1(CO)C(=O)C2CCN1CC2 (stereo not drawn) [PRIMA-1MET] + Cc1nc(NC(=O)N2CCC[C@H]2C(N)=O)sc1-c1ccnc(C(C)(C)C(F)(F)F)c1 [Alpelisib] (partner 2 µM) | 1.06 |

Could you now look at the following compound, please?
-- ask Field request: relative viability | item: COCC1(CO)C(=O)C2CCN1CC2 (stereo not drawn) [PRIMA-1MET] + CC(=O)c1c(C)c2cnc(Nc3ccc(N4CCNCC4)cn3)nc2n(C2CCCC2)c1=O [Palbociclib] (partner 0.5 µM)
-- reply 0.312

====

Tested on: NCI-H322M
Method: relative viability (nuclei count vs DMSO), 5 days (fraction); higher = more cells survive
Run Conditions: first compound 0.01 µM
Mark each entry Met if its relative viability sits below 0.7, and Not met for all others.

Solved cases (5 shown):
| Compound | Assigned Label |
| --- | --- |
| CCN(CC)CCCCNc1ncc2cc(-c3cc(OC)cc(OC)c3)c(NC(=O)NC(C)(C)C)nc2n1 + CC(=O)Nc1cccc(-n2c(=O)n(C3CC3)c(=O)c3c(Nc4ccc(I)cc4F)n(C)c(=O)c(C)c32)c1 [Trametinib] (partner 0.02 µM) | Met |
| O=c1cc(N2CCOCC2)oc2c(-c3cccc4c3sc3ccccc34)cccc12 + CC1(C)CCC(c2ccc(Cl)cc2)=C(CN2CCN(c3ccc(C(=O)NS(=O)(=O)c4ccc(N[C@H](CCN5CCOCC5)CSc5ccccc5)c(S(=O)(=O)C(F)(F)F)c4)cc3)CC2)C1 [Navitoclax] (partner 0.5 µM) | Not met |
| CCN(CC)CCCCNc1ncc2cc(-c3cc(OC)cc(OC)c3)c(NC(=O)NC(C)(C)C)nc2n1 + N=C(N)NC(=N)NCCc1ccccc1 [Phenformin] (partner 250 µM) | Not met |
| O=c1cc(N2CCOCC2)oc2c(-c3cccc4c3sc3ccccc34)cccc12 + CCNC(=O)c1noc(-c2cc(C(C)C)c(O)cc2O)c1-c1ccc(CN2CCOCC2)cc1 [Luminespib] (partner 0.01 µM) | Not met |
| O=c1cc(N2CCOCC2)oc2c(-c3cccc4c3sc3ccccc34)cccc12 + CC(=O)Nc1cccc(-n2c(=O)n(C3CC3)c(=O)c3c(Nc4ccc(I)cc4F)n(C)c(=O)c(C)c32)c1 [Trametinib] (partner 0.02 µM) | Met |

# ---- query compound ----
-- ask Is 0.7 strictly greater than the compound's reported relative viability? compound: O=c1cc(N2CCOCC2)oc2c(-c3cccc4c3sc3ccccc34)cccc12 + O=C(CCCCCCC(=O)Nc1ccccc1)NO [Vorinostat] (partner 1 µM)
-- reply Not met
